src = patent US20170165240A1

system: MM029 melanoma cell line; assay: Cell proliferation, crystal violet assay, MM029; assay type: cell-based; details: Homo sapiens, V600K, read-out: IC50 (μM) vemurafenib
READOUT: IC50 (µM)

| STRUCTURE | MEASURED_VALUE |
| --- | --- |
| CCCS(=O)(=O)Nc1ccc(F)c(C(=O)c2c[nH]c3ncc(-c4ccc(Cl)cc4)cc23)c1F | 30 |

###

tested on: MM074 melanoma cell line; assay: Cell proliferation, crystal violet assay, MM074; conditions: Homo sapiens, read-out: IC50 (μM) vemurafenib

| STRUCTURE | IC50 (µM) |
| --- | --- |
| CCCS(=O)(=O)Nc1ccc(F)c(C(=O)c2c[nH]c3ncc(-c4ccc(Cl)cc4)cc23)c1F | 0.1 |
